# assayed system: DPP IV enzyme (Homo sapiens)
# Sequence (P27487 whole entry, species assumed): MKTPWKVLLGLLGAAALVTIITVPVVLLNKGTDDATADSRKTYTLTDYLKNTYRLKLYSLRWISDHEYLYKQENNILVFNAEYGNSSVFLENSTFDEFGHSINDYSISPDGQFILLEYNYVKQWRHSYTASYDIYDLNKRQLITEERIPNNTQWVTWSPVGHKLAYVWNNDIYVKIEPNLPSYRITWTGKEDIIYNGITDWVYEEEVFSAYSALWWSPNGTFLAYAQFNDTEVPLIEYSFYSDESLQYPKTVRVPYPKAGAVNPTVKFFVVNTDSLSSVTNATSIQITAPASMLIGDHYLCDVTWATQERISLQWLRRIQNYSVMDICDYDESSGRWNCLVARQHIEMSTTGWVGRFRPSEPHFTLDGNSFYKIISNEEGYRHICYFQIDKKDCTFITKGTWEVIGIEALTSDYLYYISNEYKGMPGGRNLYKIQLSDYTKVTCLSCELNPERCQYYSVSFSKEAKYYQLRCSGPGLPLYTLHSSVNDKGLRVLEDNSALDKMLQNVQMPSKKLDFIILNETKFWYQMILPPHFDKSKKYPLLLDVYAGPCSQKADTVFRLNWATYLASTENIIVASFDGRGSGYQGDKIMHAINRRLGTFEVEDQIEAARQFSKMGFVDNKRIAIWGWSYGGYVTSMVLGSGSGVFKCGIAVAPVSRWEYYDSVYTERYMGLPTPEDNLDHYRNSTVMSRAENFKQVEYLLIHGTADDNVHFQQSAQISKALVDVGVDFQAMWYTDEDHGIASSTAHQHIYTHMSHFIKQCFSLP
# assay info: Stability against DPP IV enzyme
# Assay type: in vitro ADME
# condition: 2 μM, 37° C.; read-out: half-life (t1/2) with DPP-IV enzyme
# Description: Different peptidomimetics (final concentration 2 μM) were incubated with either DPP IV (1:25 mU) or pooled human plasma (7.5 μL) or simulated gastric fluid (pH 1.5; composition HCl, NaCl and Pepsin) or simulated intestinal fluid (pH 7.5) or human liver microsomes, for 0, 2, 4, 6, 12 and 24 h (37° C.; 50 mM triethanolamine-HCl buffer; pH 7.8). […] The absorbance was monitored at 206 nm using UV detector and peaks were collected manually prior to ESI-MS analysis. […]
Where a SMILES comes first, the peptide text is derived from it. [ ]: non-standard residue; d: D form. ξ: configuration not given here. ξαMeBip(2'-Et,4'-OMe) = CCc1cc(OC)ccc1-c1ccc(CC(C)(N)C(=O)O)cc1; ξBip(2'-Et-4'-OMe) = CCc1cc(OC)ccc1-c1ccc(CC(N)C(=O)O)cc1; ξαMe(hhPhe) = CC(N)(CCCc1ccccc1)C(=O)O; ξhhPhe = NC(CCCc1ccccc1)C(=O)O; ξαMeD = CC(N)(CC(=O)O)C(=O)O; ξαMeS = CC(N)(CO)C(=O)O
half-life overview
quantity name: half-life

{"compound": "CCc1cc(OC)ccc1-c1ccc(CC(C)(NC(=O)[C@H](CC(=O)O)NC(=O)[C@H](CO)NC(=O)[C@@H](NC(=O)[C@H](Cc2ccccc2)NC(=O)[C@@H](NC(=O)CNC(=O)[C@H](CCC(N)=O)NC(=O)[C@H](CO)NC(=O)[C@H](Cc2c[nH]cn2)NC(=O)[C@@H](NC(=O)[C@@H](N)C(C)C)C(C)C)[C@@H](C)O)[C@@H](C)O)C(=O)NC(CCCc2ccccc2)C(N)=O)cc1 (stereo partly drawn) [compound 205] (H-VVHSQGTFTSD[ξαMeBip(2'-Et,4'-OMe)][ξhhPhe]-NH2)", "result value": "> 24 h"}
{"compound": "CCc1cc(OC)ccc1-c1ccc(CC(NC(=O)C(C)(CC(=O)O)NC(=O)C(C)(CO)NC(=O)[C@@H](NC(=O)[C@H](Cc2ccccc2)NC(=O)[C@@H](NC(=O)CNC(=O)[C@H](CCC(N)=O)NC(=O)[C@H](C)NC(=O)[C@H](Cc2c[nH]cn2)NC(=O)[C@@H](N)C(C)C)[C@@H](C)O)[C@@H](C)O)C(=O)NC(C)(CCCc2ccccc2)C(N)=O)cc1 (stereo partly drawn) [compound 108] (H-VHAQGTFT[ξαMeS][ξαMeD][ξBip(2'-Et-4'-OMe)][ξαMe(hhPhe)]-NH2)", "result value": "> 24 h"}
{"compound": "CCc1cc(OC)ccc1-c1ccc(CC(C)(NC(=O)C(C)(CC(=O)O)NC(=O)[C@H](CO)NC(=O)[C@@H](NC(=O)[C@H](Cc2ccccc2)NC(=O)[C@@H](NC(=O)CNC(=O)[C@H](CCC(=O)O)NC(=O)[C@H](C)NC(=O)[C@H](Cc2c[nH]cn2)NC(=O)[C@@H](N)C(C)C)[C@@H](C)O)[C@@H](C)O)C(=O)NC(CCCc2ccccc2)C(N)=O)cc1 (stereo partly drawn) [compound 62] (H-VHAEGTFTS[ξαMeD][ξαMeBip(2'-Et,4'-OMe)][ξhhPhe]-NH2)", "result value": "> 24 h"}
